Overview of reported growth inhibition across a group of molecules:
Experiment: NCI Yeast Anticancer Drug Screen. Data for the sgs1 mgt1 strain (AID 161);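 further: 0% = growth of cultures given vehicle only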
Conditions: S. cerevisiae sgs1 mgt1 strain, at 50.0 µM, active compounds read high
This is part of a sample that, as a whole, favours compounds with a hit. Of some 79,000 tested, about 15% had one in any assay.
// note: answer is a bare numeric in %

Solved entries (count: 3):
C/C(CC(C)C)=N/Nc1ccc([N+](=O)[O-])cc1[N+](=O)[O-]    2.65
O=C(Nc1cccc2ccccc12)ON1C(=O)c2ccccc2C1=O    -0.1
CC(C)OC(=O)Nc1cccc(C(=O)O)c1    -2.8

Which growth inhibition reading was recorded for the molecule Cc1cccc(N=N/C(=N\NC(=O)c2cc(Cl)ccc2O)c2ccc(N(CCC#N)CCC#N)cc2C)c1 ? 19.7

Reported growth inhibition for COc1ccc(/C=C2\C(=O)N(C(=O)Cc3ccccc3)N=C2C)cc1OC : what is it? -59.1

Return reported growth inhibition; argument: c1ccc(-c2nn(-c3ccccc3)[n+](-c3ccccc3)n2)cc1 21.9

====

Assay: NCI Yeast Anticancer Drug Screen. Data for the sgs1 mgt1 strain (AID 161);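 further: 0% = growth of cultures given vehicle only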
Conditions: S. cerevisiae sgs1 mgt1 strain, at 50.0 µM, active compounds read high
About 79,000 compounds went through this panel and 15% of them were active in at least one assay; those are over-represented in the sample as a whole.
QUANTITY MEASURED: growth inhibition (%)
Please reply with the bare figure in % and do not write the unit itself.

These solved cases illustrate the format of a correct answer.
CCOc1ccc2nc(/C=C/c3ccccc3)ccc2c1    13.8
CN(C(=O)Cl)c1ccccc1    7.8
CCOC(=O)NC(C)=O    14.1
CC(=O)[C@H]1CC[C@H]2[C@@H]3CC[C@@H]4CC(=O)CC[C@]4(C)[C@H]3[C@@H]3O[C@@H]3[C@]12C    -11.1
CC(C)(C)S(=O)(=O)C[N+]1(C)CCOCC1    -1.6

So what does the record say about growth inhibition for O=C(c1cccc([N+](=O)[O-])c1)N1CCOCC1 ? 1.45

Data request, read-out growth inhibition, for NC(=O)C12CC3CC(CC(Br)(C3)C1)C2 -8.25

Query (compound): C/C(CC/C(C)=N/NC(N)=O)=N/NC(N)=O ; field requested: growth inhibition -9.85

====

Assay: NCI Yeast Anticancer Drug Screen. Data for the sgs1 mgt1 strain (AID 161);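 further: 0% = growth of cultures given vehicle only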
Conditions: S. cerevisiae sgs1 mgt1 strain, at 50.0 µM, active compounds read high
This is part of a sample that, as a whole, favours compounds with a hit. Of some 79,000 tested, about 15% had one in any assay.
QUANTITY MEASURED: growth inhibition (%)
Numbers only; they are read as %.

C=C1C(=O)C=C2C=C3C(=O)C(C)(C)C[C@]3(O)C12C (stereo not given in full)    89

Query: growth inhibition; subject: CN(C)c1ccc(/C=C2\CCOC2=O)cc1 14.3

Given COc1ccc(/C=C2\CCN=C2c2ccccc2)cc1OC , state its recorded growth inhibition. 2.85

Look at this compound and give its reported growth inhibition. COc1ccc(C2Oc3cc(OC)c(OC)cc3C2CCl)cc1OC (stereo not given) -46.8

Tell me the measured growth inhibition of COc1cccc(N=Cc2ccc(C=Nc3cccc(OC)c3)cc2)c1 , please. 11.1

====

Test: NCI Yeast Anticancer Drug Screen. Data for the mlh1 rad18 strain (AID 175)
Details: S. cerevisiae mlh1 rad18 strain growth inhibition; at 50.0 µM; active compounds read high
Compounds without any hit were thinned out: in the full panel of roughly 79,000, 15% have a hit.
QUANTITY MEASURED: growth inhibition (%)
Supply the numeric figure in %, leaving out any unit text.

Item under review: COC1OCC(NC(C)=O)C(OC(C)=O)C1OC(C)=O (stereo unspecified) . Reported growth inhibition? -8

What value of growth inhibition has been recorded for this entry: Oc1c(Cl)cc(Cl)cc1/C=N/c1nc(-c2ccc(Cl)cc2)cs1 35

What does the data say about its growth inhibition? Entry: Cc1cccc(NC(=O)Oc2ccc(Nc3ccccc3)cc2)c1 50.4

Report growth inhibition for COc1cc2ccc3c[n+](C)ccc3c2cc1OC please. -57.6

Bench note: what growth inhibition did CC1(C)CCCC(C)(C)C1=NO show? 22.9

So what's the measured growth inhibition for this one? CCCC(CCO)(CCO)c1ccccc1 -5.7

====

Assay: NCI Yeast Anticancer Drug Screen. Data for the mlh1 rad18 strain (AID 175)
Details: S. cerevisiae mlh1 rad18 strain growth inhibition; at 50.0 µM; active compounds read high
Compounds without any hit were thinned out: in the full panel of roughly 79,000, 15% have a hit.
Each item that follows carries a reported growth inhibition.
Report as a plain number; the unit % is understood.

Solved cases below.
O=C(O)CCCC1=C2CCC(=O)C=C2CCC1    -10.1
O=C(OCCN1CCCCC1)C(c1ccccc1)C1(O)CCSCC1 (configuration not stated)    5.15
CCCCCCCCCCCCCCCCCCCCCCCCCCCC    -22.9
Brc1ccc(/C(=N/Nc2ccccc2)Oc2ccccc2)cc1    19.6
C#CCOC(=O)[C@@H](C)c1ccc2cc(OC)ccc2c1    43

Please give the measured growth inhibition for this compound: COc1cc(C(=O)Nc2cccc3ccccc23)c(Br)c(OC)c1OC 32.7

Return reported growth inhibition; argument: CC1=C(O)C(=O)C(C2=C(O)C(=O)C(C)=C(O)C2=O)=C(O)C1=O 12.6

====

Experiment: NCI Yeast Anticancer Drug Screen. Data for the bub3 strain (AID 167)
Conditions: S. cerevisiae bub3 mutant strain, at 50.0 µM, active compounds read high
Compounds without any hit were thinned out: in the full panel of roughly 79,000, 15% have a hit.
QUANTITY MEASURED: growth inhibition (%)
Return type: number; implicit unit %.

Param item = COc1cc(OC)c(/C=C2\N=C(C)N(Nc3nnc(NN4C(=O)/C(=C/c5c(OC)cc(OC)cc5OC)N=C4C)c4ccccc34)C2=O)c(OC)c1 ; retrieve measured growth inhibition. -2.7

Could you share which growth inhibition value was measured for CS(=O)(=O)Cc1cc(-c2ccccc2)no1 ? 7.75

What does the record list as growth inhibition for O=C(COc1ccc(Cl)c(Cl)c1)NCc1cccc(Cl)c1 ? 36.4

Bench note: what growth inhibition did CCOC(=O)NC(=S)C1=C(N2CCOCC2)CCC1 show? -28.4

# query: growth inhibition of entry CC(=O)Nc1ccc2oc(=O)[nH]c(=O)c2c1 -18.6

What value of growth inhibition has been recorded for this entry: COc1ccc(/C=C2/SC(=Nc3ccccc3)N(NC(=O)Cc3ccccc3)C2=O)cc1 -26.6

Which growth inhibition value is on record for CC(C)c1ccc(O)c(Cc2cc(C(C)C)cc(Cc3cc(C(C)C)ccc3O)c2O)c1 ? 1.1

Form field: reported growth inhibition of O=C(NCCCCCCNC(=O)N1CCCCC1)c1cccnc1 13.3

Entry under review: O=COCCCCCc1ccccc1 . Reported growth inhibition? -6.45

What value of growth inhibition has been recorded for this entry: O=[N+]([O-])c1ccc2nc(NCCCO)c3ccccc3c2c1 12.1

Fill in the blank: the reported growth inhibition of CCCCN(CCO)CC(O)Cn1cnc2c(N)ncnc21 (stereo not given) is ____. -5.65

# query: growth inhibition of entry CCCCCCCCCCCCCCCCCC1(c2ccccc2)NC(=O)NC1=O (stereo not given) 5.8

Which measured growth inhibition value corresponds to Cc1ccc([N+](=O)[O-])c2c(NCCCN(C)C)ccnc12 ? 13.2

Form field: reported growth inhibition of CCOC(=O)c1c(NNc2ccccc2)nc2ccccc2c1-c1ccccc1 -10.3

Endpoint output: growth inhibition of O=C(NCCN1CCCCC1)c1ccc(Br)cc1 . Value? -18.9

Data request, read-out growth inhibition, for CC(C)OC(=O)Oc1ccccc1Cl -3.35

I have this molecule here, C1=C(c2ccccc2)C(OC2Oc3ccccc3C=C2c2ccccc2)Oc2ccccc21 (stereo not given) , and I need its recorded growth inhibition. 22.2

Quick check: growth inhibition of Cc1ccc(N2C(=O)/C(=C/c3ccc(N(CCC#N)CCC#N)cc3)CC2(O)c2ccccc2)cc1 (stereo not given) ? -13.1

For COC(=O)c1c(C(=O)c2ccccc2)nn2c(-c3ccccc3)c(-c3ccccc3)c(-c3ccccc3)c(-c3ccccc3)c12 , what is its reported growth inhibition? -1.1

Which growth inhibition is listed for CN(Cc1cnc2nc(N)nc(N)c2n1)c1ccc(C(=O)NC(CCCCN)C(=O)O)cc1 (stereo not given) ? -2.05

Recorded growth inhibition for C/C(N=NC(=S)N1CCCCC1)=C1\C=CC=CN1O , please? 43.2

Which growth inhibition is reported for this molecule? COc1ccc(/C=C2\CCCC3=C2NC(=S)NC3c2ccc(OC)cc2)cc1 (stereo not given) -1.95

Could you share which growth inhibition value was measured for CC(=O)Nc1cccc(O)c1 ? -8.7

What measured growth inhibition goes with CCN(CC)C(=S)SCCCS(=O)(=O)O ? 22.3

Which growth inhibition value is on record for CC(=O)Oc1ccccc1C(OC(C)=O)OC(C)=O ? 2.05

# query: growth inhibition of entry c1ccc(-c2nc3ccccc3o2)cc1 27.4

I'd like to know its growth inhibition. The molecule in question is COc1nc(NC2OC(CO)C(O)C(O)C2O)c(Br)c(=O)n1C (stereo not given) 0.75

Give the measured growth inhibition of Cc1nc2c(=O)[nH]c3ccccc3c2o1 . -10.3

Sample NNC(=O)CCCCCCO — what was its growth inhibition? 18.3

Find the recorded growth inhibition belonging to COc1ccc(C(=O)/C=C/c2ccc(OCCSCCCCCCCCCCSCCOc3ccc(/C=C/C(=O)c4ccc(OC)c(OC)c4)cc3)cc2)cc1OC and report it. -29.6

// provenance: PubChem BioAssay (NCI)
